Target: Peroxisome proliferator-activated receptor gamma (Homo sapiens)
Assay: ATG_PPARg_TRANS: Attagene TRANS-FACTORIAL HepG2 Assay for human Peroxisome Proliferator-activated Receptor-gamma (PPARg) (AID 2283007)
Inconclusive results are not listed. Calls of active or inactive are those of the source. Rule for the calls: active = hit-call score of the fitted dose curve at least 0.9, where 1 is the maximum; inconclusive = response in the unintended direction; inactive = score below 0.9.
measure: AC50

Solved cases below.
What AC50 appears in the records for this compound with Peroxisome proliferator-activated receptor gamma (Homo sapiens)? `NC(=O)c1nc(-c2cccc(-c3cc(F)ccc3OCC(F)(F)C(F)(F)F)c2)n[nH]1`
13 µM (active)

GET /values?readout=AC50&system=Peroxisome proliferator-activated receptor gamma (Homo sapiens)&item= `O=C(O)c1ccccc1C(=O)OCc1ccccc1`
inactive

Which measured AC50 belongs to `CCCCCCCC[Si](OCC)(OCC)OCC` , tested on Peroxisome proliferator-activated receptor gamma (Homo sapiens)?
inactive

Could you share what AC50 was measured for `Oc1ccc2ccccc2c1` , tested on Peroxisome proliferator-activated receptor gamma (Homo sapiens)?
inactive

Notebook: pull reported AC50 for Peroxisome proliferator-activated receptor gamma (Homo sapiens), entry `Cc1c2ccccc2c(C)c2c1ccc1ccccc12`
24.1 µM (active)

Return AC50 measured with Peroxisome proliferator-activated receptor gamma (Homo sapiens) given this compound: `CC[C@H](NC(=O)c1cc(F)ccc1NS(=O)(=O)c1cccc2cccnc12)c1ccccc1`
13.1 µM (active)

I'm curious: which AC50 was measured for `O=C(O)Cn1c(=O)n(Cc2ccc(Br)cc2F)c(=O)c2ccc(Cl)cc21` tested on Peroxisome proliferator-activated receptor gamma (Homo sapiens)?
6.18 µM (active)

Form: Entry = `CCOC(=O)O[C@H](C)OC(=O)c1ccc2c(c1)cc(C(=O)NC1CCN(C(C)C)CC1)n2Cc1cc(-c2ccc(Cl)s2)on1` | System = Peroxisome proliferator-activated receptor gamma (Homo sapiens) | AC50 = ____
inactive

Field: AC50 (Peroxisome proliferator-activated receptor gamma (Homo sapiens)). Entry: `CC[C@@H]1C[C@H](N(Cc2cc(C(F)(F)F)cc(C(F)(F)F)c2)C(C)=O)c2cc(C(F)(F)F)ccc2N1C(=O)OC(C)C`
inactive

Can you look up AC50 on Peroxisome proliferator-activated receptor gamma (Homo sapiens) for `Cc1ccc2oc(CN(Cc3ccccc3)C(=O)Nc3c(F)cc(F)cc3F)c(-c3ccc(Cl)cc3)c2c1` ?
inactive

For each of the compounds below, state AC50.
1. Cc1cc(F)ccc1-c1cc(N2CC[C@@H](O)[C@H]2CO)ncc1N(C)C(=O)C(C)(C)c1cc(C(F)(F)F)cc(C(F)(F)F)c1
2. COc1cc(C(=O)NC2CCN(C)CC2)ccc1Nc1ncc2c(n1)N(C1CCCC1)CC(F)(F)C(=O)N2C
3. CCCCCCCCOc1ccc(C(=O)c2ccccc2)c(O)c1
4. CO[C@H]1/C=C/O[C@@]2(C)Oc3c(C)c(O)c4c(O)c(c(/C=N/N5CCN(C)CC5)c(O)c4c3C2=O)NC(=O)/C(C)=C\C=C\[C@H](C)[C@H](O)[C@@H](C)[C@@H](O)[C@@H](C)[C@H](OC(C)=O)[C@@H]1C

1: inactive; 2: inactive; 3: inactive; 4: inactive

I would be grateful if you could provide AC50 for each of the following entries.
1. CC(C)(C)c1cc(/C=C2\SC(N)=NC2=O)cc(C(C)(C)C)c1O
2. O=c1c(-c2ccc(O)cc2)coc2cc(O)cc(O)c12

6.79 µM (active)
32.7 µM (active) [middle of 4 runs]
